// values below are reported kon
assay_target: T1, Human B7H4 ECD (SV), splice variant, 10His_FLAG (human)
T1 construct: also called B7-H4-SV
experiment: Octet BLI, hIgG1-TM on Protein G (n = 4-7)
Please state the figure in M⁻¹ s⁻¹; there is no need to write the unit.

Observe how each entry below is paired with its result.
| binder | kon, M⁻¹ s⁻¹ |
| --- | --- |
| ZY0EQD-E02 human IgG1-TM (antibody, V domains shown) VH: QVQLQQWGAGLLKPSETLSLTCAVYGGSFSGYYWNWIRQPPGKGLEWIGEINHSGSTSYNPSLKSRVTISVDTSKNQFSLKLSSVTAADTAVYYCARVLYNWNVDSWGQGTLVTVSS VL: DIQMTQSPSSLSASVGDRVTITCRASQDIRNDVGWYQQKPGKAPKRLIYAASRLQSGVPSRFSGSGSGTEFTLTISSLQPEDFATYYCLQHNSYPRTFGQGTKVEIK | 3360 |
| ZY0EPQ-E02 human IgG1-TM (antibody, V domains shown) VH: QVQLQQWGAGLLKPSETLSLTCAVYGGSFSGYYWNWIRQPPGKGLEWIGEINHSGSTNYNPSLKSRVTILVDTSKNQFSLKLSSVTAADTAVYYCARNLYNWNLDSWGQGTLVTVSS VL: DIQMTQSPSSLSASVGDRVTITCRASQGIRNDLGWYQQKPGRAPKRLIYVASSLQSGVPSRFSGSGSGTEFTLTISSLQPEDFATYYCLQHNSYPRTFGQGTKVEIK | 1380 |
| ZY0EOB-F05 human IgG1-TM (antibody, V domains shown) VH: QVQLQESGPGLVKPSQTLSLTCTVSDGSISSGGYYWSWIRQHPGKGLEWIGNIYYSGSTYYNPSLKSRVTISVDTSKNQFSLKLNSVTAADTAVYYCATEKALATVTPSGYENYYTVDVWGQGTTVTVSS VL: DIQLTQSPSFLSASVGDRVTITCWASQGISSYLAWYQQKPGKAPKLLIYAASTLQSGVPSRFSGSGSGTEFTLTISSLQPEDFATYYCQHLNSYPLTFGGGTKVEIK | 3350 |

Then this binder:
Ask: Need kon, item ZY0EO5-E07 human IgG1-TM (antibody, V domains shown, also called ZY0E05-E07; E05-E07) VH: QVQLQESGPGLVKPSQTLSLTCTVSGGSISSGGYYWSWIRQHPGKGLEWIGNIYYSGSTYYNPSLKSRVTISVDTSKNQFSLKLSSVTAADTAVYYCAREKALASVIPSGYENYYVVDVWGQGTTVTVSS VL: DIQLTQSPSFLSASVGGRVTITCWASQGIAGYLAWYQQKPGKAPKLLIYAASTLQSGVPSRFSGSGSGTEFTLTISSLQPEDFATYYCQHLNSYPLTFGGGTKVEIK
Reply: 1890

These entries and their values trace back to patent US20240239894A1.
